Form field: pKd (one value per entry).
- experimental-system: T1, biotinylated GITR (human, UniProt Q9Y5U5 26-161, limits assumed, biotinylated (sites not given))
- T1 construct: also called GITR-bio; Biotin-GITR
- T1 sequence: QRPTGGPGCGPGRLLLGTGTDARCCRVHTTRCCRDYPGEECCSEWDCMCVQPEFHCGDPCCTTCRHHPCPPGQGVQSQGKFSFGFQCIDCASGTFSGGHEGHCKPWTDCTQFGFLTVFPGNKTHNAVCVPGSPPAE
- protocol-text: BLI (Octet), biotin-GITR on streptavidin tips, antibody supernatant
pKd: −log10 of the molar value.
readout-label: pKd

1) germline variant antibody 45 (H1916E05 / K1916E05) (antibody, V domains shown, IGHG1/IGKC expression vectors; measured from CHO culture supernatant; also called Antibody ID 45) VH: QVQLVQSGAEVKKPGASVKVSCKGSGYTFTEYAMYWVRQAPGQGLEWIGLIRTYSGGVSYNQKFQGRVTMTVDTSISTAYMELSRLRSDDTAVYYCAKSGTVRGFAYWGQGTFVTVSS VL: DIVMTQSPDSLAVSLGERATINCKSSQSLLNSGNQKNYLSWYHQKPGQPPKLLIYWASTRESGVPDRFTGSGSGTDFTLTISSVQAEDVAVYYCQNDYSFPYTFGQGTKLEIK; 9.25
2) germline variant antibody 35 (H1916D05 / K1916D05) (antibody, V domains shown, IGHG1/IGKC expression vectors; measured from CHO culture supernatant; also called Antibody ID 35) VH: QVQLVQSGAEAKKPGASVKVSCKGSGYTFTGYAMYWVRQAPGQGMEWIGVIRTFSGDVTYNQKFRGRVTMTVDTSISTAYMELSRLRSDDTAVYYCAKSGTVRGFAYWGQGTLVTVSS VL: DIVMTQSPDSLAVSLGERATINCKSSQSLLNSGNQKNYLTWYHQKPGQPPKLLIYWASTRESGVPDRFTGSGSGTDFTLTISSVQAEDVAVYYCQNDYSYPYTFGQGTKLEIK; 9.73
3) germline variant antibody 54 (H1916F09 / K1916F09) (antibody, V domains shown, IGHG1/IGKC expression vectors; measured from CHO culture supernatant; also called Antibody ID 54) VH: QVQLVQSGAEVKKPGASVKVSCKASGYTFTEYAMHWVRQAPGQGLEWMGLIRTYSGGVSYNQKFQGRATMTVDTSISTAYMELSRLRSDDTAVYYCAKSGTVRGFAYWGQGTLVTVSS VL: DIVMTQSPDSLAVSLGERATINCKSSQSLLNSSNQKNYLTWYQQKPGQPPKLLIYWASTRESGVPDRFTGSGSGTDFTLTISSVQAEDVAVYHCQNDYSFPYTFGQGTKLEIK; 8.90
